assaySystem: Protein deacetylase HDAC6 (Homo sapiens, UniProt Q9UBN7)
Sequence (Q9UBN7 whole entry): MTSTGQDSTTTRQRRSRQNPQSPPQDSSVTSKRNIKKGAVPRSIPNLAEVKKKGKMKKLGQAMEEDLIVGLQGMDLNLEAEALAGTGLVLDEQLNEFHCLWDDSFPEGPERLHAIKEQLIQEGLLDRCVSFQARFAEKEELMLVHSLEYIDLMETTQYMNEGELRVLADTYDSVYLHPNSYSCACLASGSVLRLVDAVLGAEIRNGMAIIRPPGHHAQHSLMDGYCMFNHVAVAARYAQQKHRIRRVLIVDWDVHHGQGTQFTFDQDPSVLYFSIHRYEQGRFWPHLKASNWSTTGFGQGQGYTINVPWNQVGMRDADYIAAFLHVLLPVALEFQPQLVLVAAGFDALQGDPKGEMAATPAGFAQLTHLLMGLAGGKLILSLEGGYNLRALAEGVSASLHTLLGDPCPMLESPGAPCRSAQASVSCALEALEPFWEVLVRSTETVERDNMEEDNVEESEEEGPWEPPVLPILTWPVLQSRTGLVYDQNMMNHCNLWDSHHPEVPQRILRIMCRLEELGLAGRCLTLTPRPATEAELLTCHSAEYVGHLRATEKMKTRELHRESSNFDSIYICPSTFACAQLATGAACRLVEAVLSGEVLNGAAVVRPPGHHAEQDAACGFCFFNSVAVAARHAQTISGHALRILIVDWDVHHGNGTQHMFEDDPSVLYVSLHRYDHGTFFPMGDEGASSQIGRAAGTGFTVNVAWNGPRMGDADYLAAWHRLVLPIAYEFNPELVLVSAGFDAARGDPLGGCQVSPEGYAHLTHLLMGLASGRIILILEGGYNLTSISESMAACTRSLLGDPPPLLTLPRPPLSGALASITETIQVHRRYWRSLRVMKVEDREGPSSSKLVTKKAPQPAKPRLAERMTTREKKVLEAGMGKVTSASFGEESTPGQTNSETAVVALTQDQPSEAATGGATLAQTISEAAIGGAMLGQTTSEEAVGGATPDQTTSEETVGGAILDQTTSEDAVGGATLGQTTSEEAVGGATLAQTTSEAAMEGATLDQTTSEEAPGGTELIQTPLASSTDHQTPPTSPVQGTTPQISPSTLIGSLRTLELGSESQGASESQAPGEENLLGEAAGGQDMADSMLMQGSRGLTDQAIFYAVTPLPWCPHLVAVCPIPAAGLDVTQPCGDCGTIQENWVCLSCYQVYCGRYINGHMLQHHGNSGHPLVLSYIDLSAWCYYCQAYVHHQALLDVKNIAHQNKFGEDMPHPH
assayExplanation: Inhibition of HDAC6 in human HeLa cells using acetyl tubulin as substrate assessed as Ac-tubulin accumulation in cytosol after 6 hrs by immunofluorescence assay
parameter: pIC50
Lab note — pIC50 values are minus log10 of concentrations in M.

Please review the following examples before continuing.
structureSmiles: CC(C)(C)C(=O)N1CCc2cc(C(=O)NO)sc2C1
parameter: pIC50
endpointValue: 6.80

structureSmiles: O=C(NO)c1cc2c(s1)CCN(C(=O)C1CCCCC1)C2
parameter: pIC50
endpointValue: 6.79

structureSmiles: O=C(NO)c1ccc2c(c1)CCN(C(=O)C1CCCCC1)C2
parameter: pIC50
endpointValue: 6.27

Let's switch to this compound now.
input: Look at this compound and give its reported pIC50. `CC(C)(C)C(=O)N1CCc2sc(C(=O)NO)cc2C1`
output: 6.75
